The measurements presented in this section are drawn from ChEMBL document CHEMBL2069213.

MEASURED ON: Serine/threonine-protein kinase PknG (Mycobacterium tuberculosis) (UniProt P9WI73)
Sequence (P9WI73 whole entry): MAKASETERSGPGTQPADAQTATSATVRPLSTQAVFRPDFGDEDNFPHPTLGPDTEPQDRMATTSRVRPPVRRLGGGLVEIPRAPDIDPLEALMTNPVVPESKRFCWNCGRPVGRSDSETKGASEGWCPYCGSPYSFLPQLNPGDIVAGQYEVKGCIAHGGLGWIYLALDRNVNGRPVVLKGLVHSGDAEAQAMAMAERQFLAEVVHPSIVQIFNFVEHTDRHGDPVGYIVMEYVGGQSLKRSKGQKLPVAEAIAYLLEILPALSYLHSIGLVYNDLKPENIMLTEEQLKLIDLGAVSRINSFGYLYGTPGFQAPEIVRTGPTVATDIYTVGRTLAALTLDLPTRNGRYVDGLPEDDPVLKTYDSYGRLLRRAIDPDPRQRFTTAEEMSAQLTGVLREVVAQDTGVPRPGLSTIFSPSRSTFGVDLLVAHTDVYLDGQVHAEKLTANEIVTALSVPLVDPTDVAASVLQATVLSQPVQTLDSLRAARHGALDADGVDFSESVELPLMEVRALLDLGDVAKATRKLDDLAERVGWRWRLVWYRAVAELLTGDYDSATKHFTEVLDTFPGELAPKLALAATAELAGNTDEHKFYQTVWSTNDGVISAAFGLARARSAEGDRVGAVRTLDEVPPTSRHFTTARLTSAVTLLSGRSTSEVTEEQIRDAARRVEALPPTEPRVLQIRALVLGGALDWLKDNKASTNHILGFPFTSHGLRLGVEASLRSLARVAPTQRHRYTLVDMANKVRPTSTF
ASSAY OVERVIEW: Inhibition of Mycobacterium tuberculosis recombinant PKnG expressed in Escherichia coli BL21 (DE3) cells using myelin basic protein substrate at 25 uM by luciferase activity based ADP-Glo-luminescent kinase assay
READOUT KIND: inhibition (%)

SMILES CODE: Nc1nc(-c2ccc(OCc3cn(Cc4ccccc4)nn3)cc2O)cc(-c2cccc3ccccc23)n1
UNIT ABBREVIATION: %
RECORDED RESULT: 7

SMILES CODE: CCCCCCn1cc(COc2ccc(-c3cc(-c4ccccc4)nc(N)n3)c(O)c2)nn1
UNIT ABBREVIATION: %
RECORDED RESULT: 0

SMILES CODE: Nc1nc(-c2ccc(OCc3cn(Cc4ccc(Br)cc4)nn3)cc2O)cc(-c2cccc3ccccc23)n1
UNIT ABBREVIATION: %
RECORDED RESULT: 0

SMILES CODE: Nc1nc(-c2ccc(Br)cc2)cc(-c2ccc(OCc3cn(Cc4ccc(Br)cc4)nn3)cc2O)n1
UNIT ABBREVIATION: %
RECORDED RESULT: 0

SMILES CODE: Nc1nc(-c2ccc(Cl)cc2)cc(-c2ccc(OCc3cn(Cc4ccccc4)nn3)cc2O)n1
UNIT ABBREVIATION: %
RECORDED RESULT: 19

SMILES CODE: COc1ccc(-c2cc(-c3ccc(OCc4cn(Cc5ccccc5)nn4)cc3O)nc(N)n2)cc1
UNIT ABBREVIATION: %
RECORDED RESULT: 9

SMILES CODE: CC(C)c1ccc(-c2cc(-c3ccc(OCc4cn(Cc5ccccc5)nn4)cc3O)nc(N)n2)cc1
UNIT ABBREVIATION: %
RECORDED RESULT: 0

SMILES CODE: NC(=O)C1=C(NC(=O)C2CC2)CC2=C1CCCC2
UNIT ABBREVIATION: %
RECORDED RESULT: 22

SMILES CODE: Nc1nc(-c2ccccc2)cc(-c2ccc(OCc3cn(Cc4ccc(Br)cc4)nn3)cc2O)n1
UNIT ABBREVIATION: %
RECORDED RESULT: 9

SMILES CODE: Nc1nc(-c2ccccc2)cc(-c2ccc(OCc3cn(Cc4ccccc4)nn3)cc2O)n1
UNIT ABBREVIATION: %
RECORDED RESULT: 14

SMILES CODE: CCCCCCn1cc(COc2ccc(-c3cc(-c4ccc(Cl)cc4)nc(N)n3)c(O)c2)nn1
UNIT ABBREVIATION: %
RECORDED RESULT: 0
